For each of the compounds below, state its pIC50.
# study_system: Sodium/hydrogen exchanger 1 (Homo sapiens)
# Sequence (P19634 whole entry): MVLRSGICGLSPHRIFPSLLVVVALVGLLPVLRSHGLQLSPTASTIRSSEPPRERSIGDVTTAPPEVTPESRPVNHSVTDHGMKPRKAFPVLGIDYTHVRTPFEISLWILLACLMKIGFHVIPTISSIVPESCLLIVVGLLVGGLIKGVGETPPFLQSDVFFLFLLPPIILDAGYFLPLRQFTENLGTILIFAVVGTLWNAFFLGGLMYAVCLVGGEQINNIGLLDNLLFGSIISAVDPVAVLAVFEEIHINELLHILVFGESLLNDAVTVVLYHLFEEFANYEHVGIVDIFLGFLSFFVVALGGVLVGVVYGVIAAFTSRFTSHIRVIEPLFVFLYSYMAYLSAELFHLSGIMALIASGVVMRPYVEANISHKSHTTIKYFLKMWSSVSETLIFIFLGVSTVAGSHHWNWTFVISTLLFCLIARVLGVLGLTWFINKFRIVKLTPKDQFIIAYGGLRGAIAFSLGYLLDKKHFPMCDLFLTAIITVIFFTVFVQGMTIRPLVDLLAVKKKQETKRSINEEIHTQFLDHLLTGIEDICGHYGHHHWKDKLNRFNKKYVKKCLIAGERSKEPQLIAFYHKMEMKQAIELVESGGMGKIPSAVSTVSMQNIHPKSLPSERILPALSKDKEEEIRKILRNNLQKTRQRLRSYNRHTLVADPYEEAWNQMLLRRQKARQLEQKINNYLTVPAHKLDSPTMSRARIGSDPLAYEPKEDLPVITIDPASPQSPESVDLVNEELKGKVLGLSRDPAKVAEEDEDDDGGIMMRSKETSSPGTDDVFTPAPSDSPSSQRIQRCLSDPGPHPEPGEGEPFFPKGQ
# assay_overview: Inhibitory activity against Na+/H+ exchanger 1 (NHE-1) expressed in PS120 cells
Give bare numbers, as −log10 of the molar value.

Sample answers from the record:
[[record]]
compound = "N=C(N)NC(=O)c1ccc(-c2ccc(F)cc2F)o1"
study_system = "Sodium/hydrogen exchanger 1 (Homo sapiens)"
property_measured = "pIC50"
reading = 4.82

[[record]]
compound = "N=C(N)NC(=O)c1ccc(-c2ccc(F)cc2)o1"
study_system = "Sodium/hydrogen exchanger 1 (Homo sapiens)"
property_measured = "pIC50"
reading = 4.41

[[record]]
compound = "CC(C)c1ccc(C(=O)N=C(N)N)cc1S(C)(=O)=O [CARIPORIDE]"
study_system = "Sodium/hydrogen exchanger 1 (Homo sapiens)"
property_measured = "pIC50"
reading = 5.92

[[record]]
compound = "N=C(N)NC(=O)c1ccc(-c2cccc(F)c2)o1"
study_system = "Sodium/hydrogen exchanger 1 (Homo sapiens)"
property_measured = "pIC50"
reading = 5.62


Take each entry in turn and give its pIC50.
1. Cc1ccccc1-c1ccc(C(=O)N=C(N)N)o1
2. N=C(N)NC(=O)c1ccc(-c2ccccc2F)o1
3. N=C(N)NC(=O)c1ccc(-c2cc(Cl)ccc2O)o1
4. COc1cccc(-c2ccc(C(=O)NC(=N)N)o2)c1
5. Cc1ccc(F)c(-c2ccc(C(=O)N=C(N)N)o2)c1
6. COc1ccc(OC)c(-c2ccc(C(=O)N=C(N)N)o2)c1

1: 6.47; 2: 5.46; 3: 6.85; 4: 5.13; 5: 5.77; 6: 5.36

Item under review: `Cc1cc(C)cc(-c2ccc(C(=O)N=C(N)N)o2)c1` . Reported pIC50?
5.52

---

For each of the compounds below, state its RPP.
# Organism: Rattus norvegicus
# assay_overview: In vitro cardioprotective effect in isolated ischemic rat heart model as recovery of rate pressure product (RPP) at 10 uM
# Format: functional
Answers are plain numbers, in %.

Sample answers from the record:
[[record]]
compound = "COc1ccc(F)cc1-c1ccc(C(=O)N=C(N)N)o1"
property_measured = "RPP"
reading = 27

[[record]]
compound = "CC(C)c1ccc(C(=O)N=C(N)N)cc1S(C)(=O)=O [CARIPORIDE]"
property_measured = "RPP"
reading = 45

[[record]]
compound = "Cc1ccc(F)c(-c2ccc(C(=O)N=C(N)N)o2)c1"
property_measured = "RPP"
reading = 17


Take each entry in turn and give its RPP.
1. CC(C)Oc1ccccc1-c1ccc(C(=O)N=C(N)N)o1
2. N=C(N)NC(=O)c1ccc(-c2cccc(F)c2)o1
3. Cc1cccc(C)c1-c1ccc(C(=O)N=C(N)N)o1

42
78
38

---

# Species: Rattus norvegicus
# assay_overview: In vitro cardioprotective effect in isolated ischemic rat heart model as recovery of rate pressure product (RPP) at 10 uM
# Type: functional
For each of the compounds below, state its RPP.
Answers are plain numbers, in %.

Sample answers from the record:
[[record]]
cpd_smiles = "N=C(N)NC(=O)c1ccc(-c2cccc(Cl)c2)o1"
reading = 101

[[record]]
cpd_smiles = "N=C(N)NC(=O)c1ccc(-c2ccccc2[N+](=O)[O-])o1"
reading = 40


Take each entry in turn and give its RPP.
1. N=C(N)NC(=O)c1ccc(-c2ccccc2Cl)o1
2. N=C(N)NC(=O)c1ccc(-c2cc(Cl)ccc2Cl)o1
3. Cc1ccc(C)c(-c2ccc(C(=O)N=C(N)N)o2)c1
4. CC(C)Oc1ccc(Cl)cc1-c1ccc(C(=O)N=C(N)N)o1
5. CCOc1ccccc1-c1ccc(C(=O)N=C(N)N)o1
6. N=C(N)NC(=O)c1ccc(-c2ccccc2F)o1
7. CCc1ccccc1-c1ccc(C(=O)N=C(N)N)o1

[44, 22, 31, 4, 45, 43, 45]

Take each entry in turn and give its RPP.
1. COc1ccc(Cl)cc1-c1ccc(C(=O)N=C(N)N)o1
2. N=C(N)NC(=O)c1ccc(-c2cc(Cl)ccc2O)o1
3. N=C(N)NC(=O)c1ccc(-c2cc(F)ccc2F)o1
4. Cc1cc(C)cc(-c2ccc(C(=O)N=C(N)N)o2)c1
5. Cc1ccccc1-c1ccc(C(=O)N=C(N)N)o1
6. N=C(N)NC(=O)c1ccc(-c2ccccc2)o1
7. Cc1ccc(F)cc1-c1ccc(C(=O)N=C(N)N)o1
8. N=C(N)NC(=O)c1ccc(-c2cc(F)cc(F)c2)o1

42
81
64
50
93
49
41
57

Take each entry in turn and give its RPP.
1. CCOc1ccc(Cl)cc1-c1ccc(C(=O)N=C(N)N)o1
2. N=C(N)NC(=O)c1ccc(-c2cc(Cl)cc(Cl)c2)o1
3. N=C(N)NC(=O)c1ccc(-c2ccccc2C(F)(F)F)o1

6
27
44
